Just for reference, patent US7605227B2 is where these values come from.

Tested on: T cell lines against a natural (non-mutated) epitope (SSX-241-49)
Run description: Cross-reactivity and functional avidity: IFN-gamma from T cell lines against natural SSX-2 41-49 epitope
Assay type: cell-based, HHD transgenic mice
Applied conditions: IFN-gamma from T cell line raised against native SSX-2 41-49; native = 1, lower = more active
Property: Cross-reactivity and fct avidity (native to analogs)*
Answer field: number only, no words.

Form field, Cross-reactivity and fct avidity (native to analogs)* with T cell lines against a natural (non-mutated) epitope (SSX-241-49), item CC[C@H](C)[C@H](NC(=O)[C@H](CCCCN)NC(=O)[C@H](CCC(=O)O)NC(=O)[C@H](CO)NC(=O)[C@@H](NC(=O)[C@@H](N)CCCCN)C(C)C)C(=O)N[C@@H](Cc1ccccc1)C(=O)N[C@@H](Cc1ccc(O)cc1)C(=O)N[C@H](C(=O)O)C(C)C [SSX2 41-49 (A42V)] : 0.03

###

Form field: Cross-reactivity and fct avidity (native to analogs)* (one value per entry).
System: T cell lines against a natural (non-mutated) epitope (SSX-241-49)
Run description: Cross-reactivity and functional avidity: IFN-gamma from T cell lines against natural SSX-2 41-49 epitope
Format: cell-based, HHD transgenic mice
Applied conditions: IFN-gamma from T cell line raised against native SSX-2 41-49; native = 1, lower = more active
Square brackets hold non-standard residues; d marks the D form. Peptide text beside a SMILES is read from it. Phe(4-F) = N[C@@H](Cc1ccc(F)cc1)C(=O)O; Nle = CCCC[C@H](N)C(=O)O
Reply briefly: the number, and no unit.

Some solved cases for reference:
CCCC[C@H](NC(=O)[C@H](CCCCN)NC(=O)[C@H](CCC(=O)O)NC(=O)[C@H](CO)NC(=O)[C@@H](NC(=O)[C@@H](N)Cc1ccccc1)C(C)C)C(=O)N[C@@H](Cc1ccccc1)C(=O)N[C@@H](Cc1ccc(O)cc1)C(=O)N[C@H](C(=O)O)C(C)C [SSX2 41-49 (K41F, A42V, I46Nle), FVSEK(Nle)FYV] (H-FVSEK[Nle]FYV-OH) | 10
CC[C@H](C)[C@H](NC(=O)[C@H](CCCCN)NC(=O)[C@H](CCC(=O)O)NC(=O)[C@H](CO)NC(=O)[C@H](Cc1ccc2ccccc2c1)NC(=O)[C@@H](N)CCCCN)C(=O)N[C@@H](Cc1ccccc1)C(=O)N[C@@H](Cc1ccc(O)cc1)C(=O)N[C@H](C(=O)O)C(C)C | 3

Field: next molecule
Tested system T cell lines against a natural (non-mutated) epitope (SSX-241-49); Cross-reactivity and fct avidity (native to analogs)* recorded for CC[C@H](C)[C@H](NC(=O)[C@H](CCCCN)NC(=O)[C@H](CCC(=O)O)NC(=O)[C@H](CO)NC(=O)[C@H](C)NC(=O)[C@@H](N)Cc1ccc(F)cc1)C(=O)N[C@@H](Cc1ccccc1)C(=O)N[C@@H](Cc1ccc(O)cc1)C(=O)N[C@H](C(=O)O)C(C)C [SSX2 41-49 (K41(Phe-4F))] (H-[Phe(4-F)]ASEKIFYV-OH) was 3

###

Reported values of Cross-reactivity and fct avidity (native to analogs)* for individual entries
System: T cell lines against a natural (non-mutated) epitope (SSX-241-49)
Run description: Cross-reactivity and functional avidity: IFN-gamma from T cell lines against natural SSX-2 41-49 epitope
Assay type: cell-based, HHD transgenic mice
Applied conditions: IFN-gamma from T cell line raised against native SSX-2 41-49; native = 1, lower = more active
Hey, just send me the number, nothing else.

Record `CC[C@H](NC(=O)[C@@H](N)CCCCN)C(=O)N[C@@H](CO)C(=O)N[C@@H](CCC(=O)O)C(=O)N[C@@H](CCCCN)C(=O)N[C@H](C(=O)N[C@@H](Cc1ccccc1)C(=O)N[C@@H](Cc1ccc(O)cc1)C(=O)N[C@H](C(=O)O)C(C)C)[C@@H](C)CC` ; system T cell lines against a natural (non-mutated) epitope (SSX-241-49); Cross-reactivity and fct avidity (native to analogs)* = 0.3

// assay T cell lines against a natural (non-mutated) epitope (SSX-241-49), entry `CCC[C@H](NC(=O)[C@@H](N)CCCCN)C(=O)N[C@@H](CO)C(=O)N[C@@H](CCC(=O)O)C(=O)N[C@@H](CCCCN)C(=O)N[C@H](C(=O)N[C@@H](Cc1ccccc1)C(=O)N[C@@H](Cc1ccc(O)cc1)C(=O)N[C@H](C(=O)O)C(C)C)[C@@H](C)CC` , Cross-reactivity and fct avidity (native to analogs)* value = 0.1

// assay T cell lines against a natural (non-mutated) epitope (SSX-241-49), entry CC[C@H](NC(=O)[C@H](Cc1ccc(O)cc1)NC(=O)[C@H](Cc1ccccc1)NC(=O)[C@@H](NC(=O)[C@H](CCCCN)NC(=O)[C@H](CCC(=O)O)NC(=O)[C@H](CO)NC(=O)[C@@H](NC(=O)[C@@H](N)Cc1ccccc1)C(C)C)[C@@H](C)CC)C(=O)O [SSX2 41-49 (K41F, A42V, V49Abu)] , Cross-reactivity and fct avidity (native to analogs)* value = 1

###

Catalogue of Cross-reactivity and fct avidity (native to analogs)* values
Tested on: T cell lines against a natural (non-mutated) epitope (SSX-241-49)
Run description: Cross-reactivity and functional avidity: IFN-gamma from T cell lines against natural SSX-2 41-49 epitope
Assay type: cell-based, HHD transgenic mice
Applied conditions: IFN-gamma from T cell line raised against native SSX-2 41-49; native = 1, lower = more active
Ends that are not written are not given here.
The response must contain the number and no unit.

WVSEKIFYV [SSX2 41-49 (K41W, A42V)] | 1
YMSEKIFYV [SSX2 41-49 (K41Y, A42M)] | 3

Data point: FVSEKVFYV (T cell peptide epitope analog) [SSX2 41-49 (K41F, A42V, I46V)] ; Cross-reactivity and fct avidity (native to analogs)* = 1

Quick note, Cross-reactivity and fct avidity (native to analogs)* for FASEKIFYV [SSX2 41-49 (K41F)] landed at 0.3

Entry under test: K(D-Val)SEKIFYV [SSX2 41-49 (A42(D-Val))] . Its Cross-reactivity and fct avidity (native to analogs)* was 3

###

Reported Cross-reactivity and fct avidity (native to analogs)* values are given for each entry in this list.
System: T cell lines against a natural (non-mutated) epitope (SSX-241-49)
Run description: Cross-reactivity and functional avidity: IFN-gamma from T cell lines against natural SSX-2 41-49 epitope;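 further: peptide analogs tested ex vivo with competent APCs, IFN-gamma in supernatant measured by ELISA, readouts include minimal triggering concentration, peak effect and concentration at peak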
Format: cell-based, HHD transgenic mice
Applied conditions: IFN-gamma from T cell line raised against native SSX-2 41-49; native = 1, lower = more active
Square brackets hold non-standard residues; d marks the D form. Peptide text beside a SMILES is read from it. Nle = CCCC[C@H](N)C(=O)O
Lab note: jot the number down without any unit.

For the compound CC[C@H](C)[C@H](NC(=O)[C@H](CCCCN)NC(=O)[C@H](CCC(=O)O)NC(=O)[C@H](CO)NC(=O)[C@H](CC(C)C)NC(=O)[C@@H](N)Cc1ccccc1)C(=O)N[C@@H](Cc1ccccc1)C(=O)N[C@@H](Cc1ccc(O)cc1)C(=O)N[C@H](C(=O)O)C(C)C [SSX2 41-49 (K41F, A42L)] , the measured Cross-reactivity and fct avidity (native to analogs)* on T cell lines against a natural (non-mutated) epitope (SSX-241-49) was 0.3

Record for CC[C@H](C)[C@H](NC(=O)[C@H](CCCCN)NC(=O)[C@H](CCC(=O)O)NC(=O)[C@H](CO)NC(=O)[C@H](C)NC(=O)[C@@H](N)Cc1ccc(OC)cc1)C(=O)N[C@@H](Cc1ccccc1)C(=O)N[C@@H](Cc1ccc(O)cc1)C(=O)N[C@H](C(=O)O)C(C)C [SSX2 41-49 (K41(O-methyl Tyr))] (H-Y(Me)ASEKIFYV-OH) under target or system T cell lines against a natural (non-mutated) epitope (SSX-241-49): Cross-reactivity and fct avidity (native to analogs)* reported as 3

Measured on T cell lines against a natural (non-mutated) epitope (SSX-241-49), CC[C@H](C)[C@H](NC(=O)[C@H](CCCCN)NC(=O)[C@H](CCC(=O)O)NC(=O)[C@H](CO)NC(=O)[C@H](CCSC)NC(=O)[C@@H](N)Cc1ccccc1)C(=O)N[C@@H](Cc1ccccc1)C(=O)N[C@@H](Cc1ccc(O)cc1)C(=O)N[C@H](C(=O)O)C(C)C [SSX2 41-49 (K41F, A42M)] has a documented Cross-reactivity and fct avidity (native to analogs)* of 3

# value of Cross-reactivity and fct avidity (native to analogs)*, T cell lines against a natural (non-mutated) epitope (SSX-241-49), item CCCC[C@H](NC(=O)[C@H](CO)NC(=O)[C@@H](NC(=O)[C@@H](N)Cc1ccccc1)C(C)C)C(=O)N[C@@H](CCCCN)C(=O)N[C@H](C(=O)N[C@@H](Cc1ccccc1)C(=O)N[C@@H](Cc1ccc(O)cc1)C(=O)N[C@H](C(=O)O)C(C)C)[C@@H](C)CC [SSX2 41-49 (K41F, A42V, E44Nle), FVS(Nle)KIFYV] (H-FVS[Nle]KIFYV-OH) = 10
